# Test system: CCRF-CEM
# Test Description: NCI tumour cell line growth inhibition, 48 h
Activity calls are given as the source filed them. Rule as the data show it: active = GI50 up to about 1.1 µM and inactive = higher.
// GI50 lookup, one value per entry

compound=COc1ccc2nc3ccccc3c(NCCCN(C)CCCl)c2c1 assay_target=CCRF-CEM reported_endpoint=GI50 measured_value="0.064 µM (active)"

Briefly, GI50 measured for `COc1c2ccccc2c(OC)c2nc(C)ccc12` : 23.7 µM (inactive)

Form: compound = `Cc1cc(Nc2ccc(/N=N/c3ccc(O)c4ncccc34)cc2)nc(C)n1` ; GI50 = 2.75 µM (inactive)

Lookup result for [O-][S+](Nc1ccccc1)c1ccc(-c2ccccc2)cc1 (stereo unspecified) ; measured GI50: > 100 µM (inactive)

The recorded GI50 for `CC1=C(/C(C)=N/NC(=O)C(N)=O)Sc2ccccc2N1` is > 100 µM (inactive)

Form field GI50, entry N#CCCC1C(C#N)C2(Cl)CC1(Cl)C(Cl)=C2Cl (stereo unspecified) : > 10 µM (inactive)

----------
Here the recorded GI50 is given for each entry.
# Tested on: BT-549
# Test Description: NCI tumour cell line growth inhibition, 48 h
Active and inactive are the calls of the source. Rule as the data show it: active = GI50 up to about 1.1 µM and inactive = higher.

compound=Cc1cc(S(=O)(=O)n2ccnc2O)c(SCCCN(C)C)cc1Cl measured_value="> 100 µM (inactive)"
compound=CCCCCCCC/C=C\CCCCCCC/C=C1\C[C@](/C=C/C(=O)OC)(CO)OC1=O measured_value="2.33 µM (inactive)"
compound=CCCn1cnc2c(SCc3ccc(Cl)cc3)nc(N)nc21 measured_value="29.1 µM (inactive)"
compound=Cc1cc(=O)oc2cc(O)c(CN(C)CC(=O)O)cc12 measured_value="> 100 µM (inactive)"
compound=O=C1NC(N/N=C/c2ccccc2)=N/C1=C\c1ccco1 measured_value="23.7 µM (inactive)"

Sure, the documented GI50 for NC(CCP(=O)(O)O)C(=O)O (stereo unspecified) is > 100 µM (inactive)

----------
# Test system: COLO 205
# Test Description: NCI tumour cell line growth inhibition, 48 h
Activity calls are given as the source filed them. Rule as the data show it: active = GI50 up to about 1.1 µM and inactive = higher.
Reported Endpoint: GI50

The cases that follow already have their GI50 on record.
compound=O=C(CCc1ccccc1)NS(=O)(=O)c1ccccc1 measured_value="> 100 µM (inactive)"
compound=C1CCOC2(CCC3(CC2)OCCCCO3)OC1 measured_value="> 100 µM (inactive)"

Value of measured GI50 for the entry COc1cc(C2c3cc4c(cc3C(O)C3CCC(=O)N23)OCO4)cc(OC)c1OC (stereo unspecified) : 37 µM (inactive)

Query CC(NC(=O)C(=O)N/N=C1\C[C@@H](c2ccccc2)Nc2ccccc21)c1ccccc1 (stereo partly specified) yields GI50 of 48.2 µM (inactive)

Per the records, this compound ( `COC(=O)c1ccccc1N1C(=O)Cc2ccccc2C1=O` ) has GI50 equal to > 100 µM (inactive)

Just so you know, measured GI50 for `C/C(Sc1ccccc1)=C1/CCCN(Cc2ccccc2)C1` came out at 17.5 µM (inactive)

----------
# Tested on: NCI-H23
# Test Description: NCI tumour cell line growth inhibition, 48 h
The source made the active and inactive calls. Rule as the data show it: active = GI50 up to about 1.1 µM and inactive = higher.
Overview of reported GI50 across a group of compounds:

These recorded examples may help you get a feel for the data.
compound="C[N+](C)(C)CC1CCC(C[N+](C)(C)C)C1=O (centres undefined)" assay_target=NCI-H23 reported_endpoint=GI50 measured_value="4.22 µM (inactive)"
compound=O=C(CSC1=NCCN1)Nc1ccccc1 assay_target=NCI-H23 reported_endpoint=GI50 measured_value="37.6 µM (inactive)"
compound="[O-][S+]1Nc2cccc(C(F)(F)F)c2S1 (centres undefined)" assay_target=NCI-H23 reported_endpoint=GI50 measured_value="41.8 µM (inactive)"

Now for the compound whose GI50 we want.
Lab note: measured GI50 of C=C1C(=O)OC2/C=C(\C)C(=O)CC3OC(C)(C)OC3(C)CC(OC(=O)/C(C)=C/C)C12 (centres undefined) was 20.2 µM (inactive)
